Attribution: patent US9278981B2

Provide the recorded IC50 for the entries that follow.
molecular target: ABL1 (64-515) (Homo sapiens (Human), UniProt P00519); experiment: Radio ABL1 (64-515) assay (radiometric filter-binding); format: biochemical
Sequence (P00519 64-515): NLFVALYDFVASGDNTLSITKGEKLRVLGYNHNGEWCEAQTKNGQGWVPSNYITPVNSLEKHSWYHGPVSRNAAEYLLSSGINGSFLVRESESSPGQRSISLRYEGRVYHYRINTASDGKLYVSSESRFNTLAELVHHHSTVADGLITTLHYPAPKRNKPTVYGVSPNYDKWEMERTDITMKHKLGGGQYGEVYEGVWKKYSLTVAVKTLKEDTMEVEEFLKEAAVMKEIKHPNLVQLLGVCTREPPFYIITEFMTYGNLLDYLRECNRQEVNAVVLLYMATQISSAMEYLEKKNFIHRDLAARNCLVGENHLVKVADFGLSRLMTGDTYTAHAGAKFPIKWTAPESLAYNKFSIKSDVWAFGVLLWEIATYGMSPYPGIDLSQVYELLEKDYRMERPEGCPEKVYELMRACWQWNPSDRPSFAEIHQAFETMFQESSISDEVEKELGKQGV
Answers are plain numbers, in nM.

Take a look at these entries with their results.
O=C(Nc1ccc(OC(F)(F)F)cc1)c1cnc(N2CCC(F)(F)C2)c(-c2cncnc2)c1 = 1.6
COc1ccc(-c2cc(C(=O)Nc3ccc(OC(F)(F)F)cc3)cnc2NCCCO)cn1 = 12
CCN(CCO)c1ncc(C(=O)Nc2ccc(OC(F)(F)Cl)cc2)cc1-c1cncc(C#N)c1 = 6
N#Cc1cncc(-c2cc(C(=O)Nc3ccc(OC(F)(F)F)cc3)cnc2N2CC[C@@H](O)C2)c1 = 5
O=C(Nc1ccc(OC(F)(F)F)cc1)c1cnc(N2CC[C@@H](O)C2)c(-c2cc(F)cnc2F)c1 = 5

We now examine a further compound.
Ask: Under ABL1 (64-515) (Homo sapiens (Human), UniProt P00519), report IC50 for O=C(Nc1ccc(SC(F)(F)F)nc1)c1cnc(N2CC[C@@H](O)C2)c(-c2cncnc2)c1
Reply: 3

----------
molecular target: ABL1 (64-515) (Homo sapiens (Human)); test: Caliper ABL1 (64-515) assay (microfluidic mobility shift); type: biochemical
Provide the recorded log10 of IC50 for the entries that follow.
A difference of one corresponds to tenfold IC50; all values are log10 with IC50 in nM.

Take a look at these entries with their results.
Cc1ccc(-c2cc(C(=O)Nc3ccc(OC(F)(F)C(F)F)cc3)cnc2N2CC[C@@H](O)C2)cn1 [Example 213] = 1.20
CN(CCO)c1ncc(C(=O)Nc2ccc(SC(F)(F)F)cc2)cc1-c1cncc(C#N)c1 [Example 194] = 0.15
Cc1ncc(-c2cc(C(=O)Nc3ccc(OC(F)(F)F)cc3)cnc2N2CC(CO)C2)cc1F [Example 140] = -0.40
O=C(Nc1ccc(OC(F)(F)F)cc1)c1cnc(N2CC[C@@H](O)C2)c(-c2cccnc2)c1 [Example 39] = -0.22
O=C(Nc1ccc(OC(F)(F)F)cc1)c1cnc(N2CCOCC2)c(-c2cncnc2)c1 [Example 148] = 0.40
O=C(Nc1ccc(OC(F)(F)Cl)cc1)c1cnc(N2CC[C@H](CO)C2)c(-c2cncnc2)c1 [Example 174] = -0.05

Lab note: each molecule below needs its log10 of IC50 filled in.
1. N#Cc1cncc(-c2cc(C(=O)Nc3ccc(OC(F)(F)Cl)cc3)cnc2N2C[C@@H](O)[C@@H](O)C2)c1 [Example 268]
2. O=C(Nc1ccc(S(F)(F)(F)(F)F)cc1)c1cnc(N2CC[C@@H](O)C2)c(-c2cncnc2)c1 [Example 216]
3. O=C(Nc1ccc(OC(F)(F)F)cc1)c1cnc(N2CC(CO)C2)c(-c2cncnc2)c1 [Example 135]

Reply:
1. -0.40
2. -0.15
3. 0.30

Lab note: each molecule below needs its log10 of IC50 filled in.
1. N#Cc1cncc(-c2cc(C(=O)Nc3ccc(SC(F)(F)F)c(F)c3)cnc2N2CC[C@@H](O)C2)c1 [Example 207]
2. O=C(Nc1ccc(SC(F)(F)F)c(F)c1)c1cnc(N2CC[C@@H](O)C2)c(-c2cncc(F)c2)c1 [Example 206]
3. CC(F)(F)Oc1ccc(NC(=O)c2cnc(N3CC[C@@H](O)C3)c(-c3cncc(F)c3)c2)cc1 [Example 275]

Reply:
[0.04, -0.30, 0.45]

Lab note: each molecule below needs its log10 of IC50 filled in.
1. N#Cc1cncc(-c2cc(C(=O)Nc3ccc(OC(F)(F)F)c(F)c3)cnc2N2CC[C@@H](O)C2)c1 [Example 200]
2. Cc1ccc(-c2cc(C(=O)Nc3ccc(OC(F)(F)F)cc3)cnc2N2CC[C@@H](O)C2)cn1 [Example 41]

Reply:
[0.08, -0.10]

Ask: Under ABL1 (64-515) (Homo sapiens (Human)), report log10 of IC50 for O=C(Nc1ccc(C(F)(F)C(F)(F)F)cc1)c1cnc(N2CC[C@@H](O)C2)c(-c2cncc(F)c2)c1 [Example 209]
Reply: -0.30
